- test summary: APR_HepG2_StressKinase_72hr: Apredica 72-hour HepG2 Assay for Stress Kinase (AID 2282921)
- experimental setup: HepG2 stress kinase (phospho-c-Jun) imaging, actives raise or lower the signal
The source made the active and inactive calls. The calls were made as follows: active = hit-call score of the fitted dose curve at least 0.9, where 1 is the maximum; inactive = score below 0.9.
Outcome codes: y = active, n = inactive

>>> df
                                    compound  assigned_label
 0  Cc1[nH]cnc1C[C@H]1CCc2c(C)c3ccccc3n2C1=O               y
 1  CC[C@H]1CC[C@H](NCc2cc3c(cc2OC)[C@H]2C[C@H]2C(=O)N3C)[C@H](c2ccccc2)N1               n
 2                              CCOCCOCCOCCO               n
 3           C[C@](N)(Cc1ccc(O)c(O)c1)C(=O)O               n
 4                                 CCCCCCCCO               n
 5  CCn1nc(Cc2ccccc2)cc1C1CCN(C[C@H]2C[C@H](N(C)[C@@H](C(=O)O)C(C)C)C[C@@H]2c2cccc(F)c2)CC1               n
 6  CCc1cc(SCc2sc(-c3ccc(C(F)(F)F)cc3)nc2CN2CCN(c3ccc(OC)cc3)CC2)ccc1OCC(=O)O               n
 7       Cc1c(-c2cccnc2)c2ccccc2n1CCCCC(=O)O               n
 8  CNS(=O)(=O)c1cc(C(=O)N2CCC(CCN3C4CCC3CC(n3c(C)nc5ccccc53)C4)(c3cccc(F)c3)CC2)c(Cl)cc1F (stereo not given)               n
 9    COC(=O)c1c(Cl)c(Cl)c(C(=O)OC)c(Cl)c1Cl               n
10  COc1ccc(/C=C/S(=O)(=O)NC(=O)c2ccc(C)cc2Cl)cc1               n
11  CCOC(=O)COc1ccc2c(c1)CC(NCC(O)c1cccc(Cl)c1)CC2 (stereo not given)               n
12                              Cc1ccc(O)cc1               n
13  CCCN(C1CCN(C(=O)C2CCNCC2)CC1)[C@@H]1CCc2ccc(OC)cc2C1               n
14  CC(C)c1cccc(C(C)C)c1N1C(=O)c2ccc(O)cc2C1=O               y

---

- test summary: BSK_LPS_PGE2: BioMAP Diversity Plus: LPS Assay for Prostaglandin E2 (PGE2) Biomarker Activity (AID 2283082)
- experimental setup: primary human HUVEC with PBMC; actives raise or lower the signal
Active and inactive are the calls of the source. The calls were made as follows: active = hit-call score of the fitted dose curve at least 0.9, where 1 is the maximum; inactive = score below 0.9.
Possible outcomes: active, inactive

compound	assigned label
C=CC(=C)CCC=C(C)C	inactive
C1N2CN3CN1CN(C2)C3	inactive
CCCC(=O)OCC	inactive
CC(C)=CCCC(C)CCO (centres undefined)	inactive
CCCCC(CC)COC(=O)c1ccc(C(=O)OCC(CC)CCCC)cc1 (centres undefined)	inactive
CCN(C(=O)c1cc(C)cc(OC[C@H](C)Nc2ccncc2)c1)C(C)C	inactive
CN(C)c1ccc(Cc2ccc(N(C)C)cc2)cc1	active
CCCCCCCCCCCCc1ccccc1	inactive
CC(C)CCO	inactive
Fc1ccccc1[C@@H](F)COC1CCC(Nc2ncnc3[nH]ncc23)CC1 (some centres undefined)	inactive
CC1(C)C(=O)N(Br)C(=O)N1Br	inactive
CCOc1cccc(-n2cc(C(=O)N3CCN(c4cc(C(=O)O)c5ccccc5c4)CC3)nc2-c2ccc(C)cc2)c1	active
Cc1ccc(N)cc1O	active
CC(=O)OC[C@H]1O[C@@](COC(C)=O)(O[C@H]2O[C@H](COC(C)=O)[C@@H](OC(C)=O)[C@H](OC(C)=O)[C@H]2OC(C)=O)[C@@H](OC(C)=O)[C@@H]1OC(C)=O	inactive
Cc1ccc(S(=O)(=O)O)cc1C	inactive
CC[C@H]1OC(=O)[C@H](C)[C@@H](O[C@H]2C[C@@](C)(OC)[C@@H](O)[C@H](C)O2)[C@H](C)[C@@H](O[C@@H]2O[C@H](C)C[C@H](N(C)C)[C@H]2O)[C@](C)(O)C[C@@H](C)C(=O)[C@H](C)[C@@H](O)[C@]1(C)O	inactive
CCOCCO	inactive
CNS(=O)(=O)c1cc(C(=O)N2CCC(CCN3C4CCC3CC(n3c(C)nc5ccccc53)C4)(c3cccc(F)c3)CC2)c(Cl)cc1F (centres undefined)	inactive
CCOC(=O)CC(CC(=O)OCC)(OC(C)=O)C(=O)OCC	inactive
COC(=O)c1ccccc1O	inactive
Cc1c(-c2cccnc2)c2ccccc2n1CCCCC(=O)O	active
CC(C)CCCCCCCOC(=O)CCCCC(=O)OCCCCCCCC(C)C	inactive
CCc1cc(SCc2sc(-c3ccc(C(F)(F)F)cc3)nc2CN2CCN(c3ccc(OC)cc3)CC2)ccc1OCC(=O)O	active
O=C(O)c1cccc(N(Cc2cccnc2)c2ccc(OC(F)F)c(OC(F)F)c2)c1	active

---

- target under test: Transcriptional activator Myb (Homo sapiens) (UniProt P10242)
- Sequence (P10242 whole entry, looked up): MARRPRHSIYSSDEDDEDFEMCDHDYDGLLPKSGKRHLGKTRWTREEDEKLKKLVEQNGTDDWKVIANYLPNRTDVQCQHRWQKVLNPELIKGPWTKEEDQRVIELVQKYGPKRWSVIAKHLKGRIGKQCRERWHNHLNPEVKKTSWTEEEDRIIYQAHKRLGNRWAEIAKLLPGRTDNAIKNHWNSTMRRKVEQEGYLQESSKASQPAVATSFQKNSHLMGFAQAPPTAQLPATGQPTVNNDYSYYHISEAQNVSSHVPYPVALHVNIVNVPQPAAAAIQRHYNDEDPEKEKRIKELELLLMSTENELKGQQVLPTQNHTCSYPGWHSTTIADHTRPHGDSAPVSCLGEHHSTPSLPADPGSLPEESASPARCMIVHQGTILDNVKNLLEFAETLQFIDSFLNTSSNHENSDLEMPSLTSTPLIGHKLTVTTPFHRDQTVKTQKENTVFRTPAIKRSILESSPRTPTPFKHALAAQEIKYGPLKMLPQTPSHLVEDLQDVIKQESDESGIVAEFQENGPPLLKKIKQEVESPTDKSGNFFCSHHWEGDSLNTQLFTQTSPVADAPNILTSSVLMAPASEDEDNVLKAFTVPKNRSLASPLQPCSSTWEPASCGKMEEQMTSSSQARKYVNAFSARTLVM
- test summary: ATG_Myb_CIS: Attagene CIS-FACTORIAL HepG2 Assay for human Myeloblastosis (Myb) Proto-Oncogene Transcription Factor (AID 2282986)
- experimental setup: HepG2 Attagene CIS-FACTORIAL Myb reporter transcription; actives raise or lower the signal
- Method: ATG_CIS is a cell-based, multiplexed-readout assay that uses HepG2, a human liver cell line, with measurements taken at 24 hours after chemical dosing in a 24-well plate.ATG_Myb_CIS is one of 52 assay component(s) measured or calculated from the ATG_CIS assay. […] This assay endpoint, ATG_Myb_CIS, was analyzed with bidirectional fitting relative to DMSO as the negative control and baseline of activity. […]
The source made the active and inactive calls. The calls were made as follows: active = hit-call score of the fitted dose curve at least 0.9, where 1 is the maximum; inactive = score below 0.9.
measured metric: outcome

>>> print(df.to_string())
                                smiles_code  measured_metric  recorded_value
0  COc1ccc2sc(C(=O)Nc3nnn[nH]3)c(OC(C)C)c2c1          outcome        inactive
1  O=C(O)c1cccc(N(Cc2cccnc2)c2ccc(OC(F)F)c(OC(F)F)c2)c1          outcome        inactive
2  Cn1c(=O)cc(Oc2ccc(F)cc2F)c2cnc(NCC(C)(C)O)nc21          outcome        inactive

---

- test summary: APR_HepG2_CellCycleArrest_72hr: Apredica 72-hour HepG2 Assay for Cell Cycle Arrest (AID 2282914)
- experimental setup: high-content imaging, actives raise or lower the signal
- Method: APR_HepG2_72hr is a cell-based, multiplexed-readout assay that uses HepG2, a human liver cell line, with measurements taken at 72 hours after chemical dosing in a 384-well plate.APR_HepG2_CellCycleArrest_72hr is one of 10 assay component(s) measured or calculated from the APR_HepG2_72hr assay. […] This assay endpoint, APR_HepG2_CellCycleArrest_72hr, was analyzed with bidirectional fitting relative to DMSO as the negative control and baseline of activity. […]
Activity calls are given as the source filed them. The calls were made as follows: active = hit-call score of the fitted dose curve at least 0.9, where 1 is the maximum; inactive = score below 0.9.
Labels: active, inactive

                                    compound  assigned_label
 0   Cn1cnc([N+](=O)[O-])c1Sc1ncnc2nc[nH]c12        inactive
 1  Fc1ccccc1[C@@H](F)COC1CCC(Nc2ncnc3[nH]ncc23)CC1 (stereo partly drawn)          active
 2  O=c1n(CC2CO2)c(=O)n(CC2CO2)c(=O)n1CC1CO1 (stereo not drawn)          active
 3  CCN(C(=O)c1cc(C)cc(OC[C@H](C)Nc2ccncc2)c1)C(C)C        inactive
 4  CCc1cc(SCc2sc(-c3ccc(C(F)(F)F)cc3)nc2CN2CCN(c3ccc(OC)cc3)CC2)ccc1OCC(=O)O        inactive
 5                       CC(C)=CCC/C(C)=C/CO        inactive
 6  CCC(C)(C)C(=O)O[C@H]1C[C@@H](C)C=C2C=C[C@H](C)[C@H](CC[C@@H]3C[C@@H](O)CC(=O)O3)[C@H]21        inactive
 7                         C=CC(=C)CCC=C(C)C        inactive
 8                  Clc1nc(Cl)c(Cl)c(Cl)c1Cl          active
 9                               CCNc1ccccc1        inactive
10  CC(C)CCCCCCCOC(=O)CCCCC(=O)OCCCCCCCC(C)C        inactive
11                              Nc1cccc(N)c1        inactive
12                           COC(=O)CC(=O)OC        inactive
13                             Cc1ccc(N)cc1O        inactive
14  CC(O)CN(CCN(CC(C)O)CC(C)O)CC(C)O (stereo not drawn)        inactive
15  O=C1CCC(N2C(=O)c3ccccc3C2=O)C(=O)N1 (stereo not drawn)        inactive
16       Cc1c(-c2cccnc2)c2ccccc2n1CCCCC(=O)O        inactive
17  CCCN(C1CCN(C(=O)C2CCNCC2)CC1)[C@@H]1CCc2ccc(OC)cc2C1        inactive
18    CCOC(=O)CC(CC(=O)OCC)(OC(C)=O)C(=O)OCC          active
19  CC(=O)c1ccc2c(c1)[C@H](NC(=O)c1ccc(F)cc1)[C@@H](O)C(C)(C)O2        inactive
20  O=C(O)CCN(C1(C(=O)NO)CCCC1)S(=O)(=O)c1ccc(Oc2ccc(F)cc2)cc1        inactive
21              CN(C)c1ccc(N=NS(=O)(=O)O)cc1          active
22                           Cc1ccc(C)c(O)c1        inactive
23  O=C(CCCCCCCCc1cccnc1)N1CCC(C=C(c2ccccc2)c2ccccc2)CC1        inactive
24  COc1ccc2sc(C(=O)Nc3nnn[nH]3)c(OC(C)C)c2c1        inactive
25                       CC(C)=CCC/C(C)=C\CO        inactive
26  CCCCC(CC)COC(=O)CCCCCCCCC(=O)OCC(CC)CCCC (stereo not drawn)          active
27                 O=C(O)c1cccc(Oc2ccccc2)c1        inactive
28      O=C(O)CC(O)C(=O)O (stereo not drawn)        inactive
29                   Oc1ccc2c(c1)-c1ccccc1C2          active
30  O=C(O)c1cc(N=Nc2ccc(S(=O)(=O)Nc3ccccn3)cc2)ccc1O        inactive
31                 CC1(C)C(=O)N(Br)C(=O)N1Br        inactive
32       CC(C)=CCCC(C)CCO (stereo not drawn)          active
